Test: PhoP regulon inhibitors, Salmonella typhi PhoP promoter GFP reporter, confirmatory (AID 1850);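 further: 0% = induced wells with vehicle and 100% = uninduced wells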
Conditions: fluorescence, 4 h, at 50 µM, active compounds read high
Screen size: about 310,000 compounds; about 1,000 (0.32%) were called active. Not all results are given here. Measured potencies and affinities stand elsewhere.
Quick reference: inhibition of the listed items.
measuredParameter: inhibition

1. CN(C)CCCN(C(=O)COc1ccccc1)c1nc2ccc(F)cc2s1 : -2.75% (inactive)
2. CN(C)CCCN(C(=O)CCc1ccccc1)c1nc2ccc(F)cc2s1 : 1.04% (inactive)
3. CN(C)CCCN(C(=O)COc1ccc(Cl)cc1)c1nc2ccc(F)cc2s1 : 14% (inactive)
4. CN(C)CCCN(C(=O)CCc1ccccc1)c1nc2ccc(Cl)cc2s1 : 0.73% (inactive)
5. O=C(CSc1nnc(SCc2ccccc2)s1)N/N=C/C=C/c1ccccc1[N+](=O)[O-] : 8.59% (inactive)

----------
Experiment: PhoP regulon inhibitors, Salmonella typhi PhoP promoter GFP reporter, confirmatory (AID 1850);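 further: 0% = induced wells with vehicle and 100% = uninduced wells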
Conditions: fluorescence, 4 h, at 50 µM, active compounds read high
The campaign covered roughly 310,000 compounds. About 1,000 (0.32%) were called active. Not all results are given here. Potency and affinity values are given separately.
measuredParameter: inhibition (%)

1. Oc1ccc(C[C@@H]2CNCCN2CC2CCCCC2)cc1 : -6.54
2. CC1(C)Cc2c(cnn2-c2ccc(F)cc2)C(NC(=O)CN2CCCCC2=O)C1 (stereo unspecified) : -4.07
3. Oc1ccc(C[C@H]2CNCCN2CCC23CC4CC(CC(C4)C2)C3)cc1 : -7.57
4. c1ccc(C[C@H]2CNCCN2CCC23CC4CC(CC(C4)C2)C3)cc1 : 15.7
5. Oc1ccc(C[C@H]2CNCCN2CC2CCCCC2)cc1 : -0.4
6. CCCCN1CCNC[C@H]1Cc1ccc(O)cc1 : 0.57

----------
Assay: PhoP regulon inhibitors, Salmonella typhi PhoP promoter GFP reporter, confirmatory (AID 1850);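 further: 0% = induced wells with vehicle and 100% = uninduced wells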
Details: fluorescence, 4 h, at 50 µM, active compounds read high
The whole screen tested about 310,000 compounds, of which about 1,000 (0.32%) were called active. The list is a sample of the results. Potency and affinity values are given separately.
measuredParameter: inhibition (%)

1) Cc1ccc(-c2csc(N=C(N)N)n2)cc1 : 3.62
2) O=C(O)C(Cc1c[nH]c2ccccc12)NS(=O)(=O)c1ccc2ccccc2c1 (stereo not drawn) : -4.9
3) COc1ccc(CCNCC(O)COc2ccc(Cl)cc2)cc1OC (stereo not drawn) : 5.92
4) O=C(NCCc1ccccc1Cl)c1ccc2nc3ccccc3c(=O)n2c1 : -1.95
5) O=C(NC1CCN(Cc2ccccc2)CC1)C1CCN(S(=O)(=O)c2ccccc2)CC1 : 5.66
6) COc1ccc(Cl)cc1NC(=S)NCc1cccs1 : -1.43
7) O=C1CCCN1c1ncc(S(=O)(=O)c2ccc([N+](=O)[O-])cc2)s1 : 0.41
8) CN1C(=O)Cc2cc(S(=O)(=O)N3CCN(c4ccc(Cl)cc4)CC3)ccc21 : 3.82
9) Nc1ccc(C(=O)OCc2nc3c(ccc4ccccc43)[nH]2)cc1 : 0.78
10) COc1ccc(-c2csc(N=C(N)N)n2)cc1 : 4.34
11) Cc1c(N2C(=O)CSC2c2ccco2)c(=O)n(-c2ccccc2)n1C (stereo not drawn) : 13.9
12) CCCCOc1ccc(C(=O)N2CC(C)OC(C)C2)cc1 (stereo not drawn) : -8.56
13) O=C1c2ccccc2NC(c2ccccc2O)N1O (stereo not drawn) : -4.51
14) CCOc1ccc(N(CC(=O)N2CCN(Cc3ccccc3)CC2)S(C)(=O)=O)cc1 : 1.84
15) CC(C)(CO)NCc1ccccc1OCC(=O)Nc1ccccc1 : -11.7
16) CN1CCN(CCC=C2c3ccccc3Sc3ccc(S(=O)(=O)N(C)C)cc32)CC1 : -2.21
17) OCCN1CCN(CC/C=C2/c3ccccc3Sc3ccc(C(F)(F)F)cc32)CC1 : -0.41
18) CCC(C)c1ccc(NC(=O)c2[nH]c(C)c(C(C)=O)c2C)cc1 (stereo not drawn) : -9.52
19) CC1(C)C2CCC1(CS(=O)(=O)N1CCN(c3ccc(F)cc3)CC1)C(=O)C2 (stereo not drawn) : -7.85
20) O=C(Nc1ccnn1C1CCN(C/C=C/c2ccccc2)CC1)C1CCCC1 : -2.03
21) O=C(COc1ccc(Br)cc1)N(Cc1ccccc1)c1ccccn1 : 12.3
22) CC1CN(C)C(C)CC1OC(=O)C(c1ccccc1)c1ccccc1 (stereo not drawn) : -11.9
23) O=C(Nc1cc(C(F)(F)F)ccc1N1CCOCC1)C1=NN(c2ccccc2)C(=O)CC1 : 0.11

----------
Assay: PhoP regulon inhibitors, Salmonella typhi PhoP promoter GFP reporter, confirmatory (AID 1850);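 further: 0% = induced wells with vehicle and 100% = uninduced wells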
Details: fluorescence, 4 h, at 50 µM, active compounds read high
Screen size: about 310,000 compounds; about 1,000 (0.32%) were called active. Not all results are given here. Results with a measured potency or affinity are listed apart.
measuredParameter: inhibition

1) Cn1cc(P(=S)(N2CCOCC2)N2CCOCC2)cc1P(=S)(N1CCOCC1)N1CCOCC1 : -5.57% (inactive)
2) CC(=O)c1c(N2CCOCC2)nc(=S)n(-c2ccc([N+](=O)[O-])cc2)c1C : 3.58% (inactive)
3) COc1cccc(-c2nnc(NC(C)=O)o2)c1 : -10.6% (inactive)
4) COC(=O)COc1ccc(C(C2C(=O)CC(C)(C)CC2=O)C2C(=O)CC(C)(C)CC2=O)cc1 : -2.61% (inactive)
5) CCn1cc(C(=O)N2CCN(c3ccccc3F)CC2)c(=O)c2ccc(C)nc21 : -6.12% (inactive)
6) C#CCOCCOCCOCCNc1nc(N2CCN(C(=O)[C@H](CCC(=O)O)n3cc(C(N)CC(C)C)nn3)CC2)nc(N2CCN(C(=O)[C@H](Cc3cc4ccccc4[nH]3)n3cc(C(N)CC(C)C)nn3)CC2)n1 (some centres undefined) : -7.76% (inactive)
7) CCn1cc(C(=O)O)c(=O)c2cc(F)c(N3CCN(S(=O)(=O)c4ccc5c(c4)OCCO5)CC3)cc21 : 9.21% (inactive)
8) C#CCOCCOCCOCCNc1nc(N2CCOCC2)nc(N2CCN(C(=O)[C@H](Cc3cc4ccccc4[nH]3)n3cc([C@@H](N)CC(C)C)nn3)CC2)n1 : 7.58% (inactive)
9) O=[N+]([O-])c1ccc(/C([O-])=C(/C(=S)NCc2ccco2)[n+]2ccccc2)cc1 : 13.8% (inactive)
10) CCCCOc1ccc(NC(=O)C(=O)NCCCn2ccnc2)cc1 : -4.73% (inactive)
11) COc1ccc(N2CC(C(=O)Nc3ccc([N+](=O)[O-])cc3Br)CC2=O)cc1 (centres undefined) : 6.01% (inactive)
12) CC(=O)N1CN2CN(C(C)=O)CC(C(=O)c3ccc([N+](=O)[O-])cc3)(C2)C1 : 5.88% (inactive)
13) CN(C)Cc1cnc2ccc(Cl)cn12 : 2.3% (inactive)
14) Cc1cc(Br)c(NC(=O)COC(=O)CSc2nnc(-c3ccc(Cl)cc3)o2)c(Br)c1 : 6% (inactive)
15) Cc1ccc(S(=O)(=O)Nc2cc(C(=O)N3CCC4(CC3)OCCO4)ccc2N2CCCCC2)cc1 : 3.06% (inactive)
16) C=CCn1c(CSc2ccc(C)cc2)n[nH]c1=S : 2.92% (inactive)
17) O=C(Nc1nnc(-c2ccco2)o1)c1ccc(Cl)s1 : 2.73% (inactive)
18) COc1ccc2oc(C(=O)OCC(=O)N3CC(C)OC(C)C3)c(C)c2c1 (centres undefined) : 1.14% (inactive)
19) COc1cc(Nc2nc3ccccc3nc2NS(=O)(=O)c2ccc([N+](=O)[O-])cc2)cc(OC)c1OC : 6.03% (inactive)

----------
Assay: PhoP regulon inhibitors, Salmonella typhi PhoP promoter GFP reporter, confirmatory (AID 1850);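 further: 0% = induced wells with vehicle and 100% = uninduced wells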
Conditions: fluorescence, 4 h, at 50 µM, active compounds read high
Among all 310,000 compounds or so, about 1,000 (0.32%) were called active. The list is a sample of the results. Potency and affinity values are given separately.
Quick reference: inhibition of the listed items.
measuredParameter: inhibition (%)

1. Cc1c(Cl)cccc1NC(CC(=O)c1ccccc1)C(=O)OCC(=O)c1cccs1 (stereo unspecified) : -2.54
2. Cn1c(=O)c2c(ncn2CC(=O)Nc2nc(-c3ccccc3Cl)cs2)n(C)c1=O : 21.1
3. O=C(N/N=C\c1ccc(F)cc1)c1ccc(F)cc1 : 23.4
4. CCN(CC)c1ccc(CNc2nc3ccccc3n2CCN2CCOCC2)cc1 : 6.95
5. O=C1c2ccccc2NC(c2ccc(-c3cccc([N+](=O)[O-])c3)o2)N1O (stereo unspecified) : -4.04
6. COc1ccc(CNc2nc3ccccc3n2CCN2CCCCC2)cc1 : -9.45
7. CCN1C(=O)CSC1=Nc1ccc(OC)cc1 : -7.25
8. Cc1ccc(CNC(=O)C2CCCN(c3nn4c(=O)cc(C)nc4s3)C2)cc1 (stereo unspecified) : -0.07
9. O=c1[nH]c(C2CCCN(S(=O)(=O)c3ccccc3F)C2)nc2c1nnn2Cc1ccccc1Cl (stereo unspecified) : 0.52
10. CCOc1ccc(N2C(=O)C3ON(c4ccccc4)C(c4cccs4)C3C2=O)cc1 (stereo unspecified) : 9.38
11. CN(C)c1cccc(C(=O)OCC(=O)Nc2ccccc2-c2ccccc2)c1 : -5.83
12. CCCCn1c2c(c(=N)c3c1CCC3)CCC2 : -3.76
13. COCCCN1CN(S(=O)(=O)c2ccc(C)cc2C)c2nc3ccccc3nc21 : 6.06
14. Cc1ccc2[nH]c3c(N4CCN(Cc5ccccc5)CC4)ncnc3c2c1 : 11.1
15. c1ccc2c3c([nH]c2c1)-c1[nH]ncc1CC3 : -5.34
16. CCCn1c2ccccc2c2nnc(SCC(=O)Nc3ncccn3)nc21 : 1.55
17. O=c1nc(-c2ccccc2)n(-c2ccc(Cl)cc2)[nH]1 : -11
18. CN(C)c1ccnc2sc3c(SCc4ccc(Cl)cc4)ncnc3c12 : -7.49
19. COc1ccc(-n2nc(C(=O)NCC(=O)N3CCN(c4ccccc4)CC3)c3ccccc3c2=O)c(OC)c1 : 3.7
20. CCc1ccc(NC(=O)[C@H](C)NC(=O)C2CCN(C(=O)[C@@H](N)C(C)C)CC2)cc1 : 3.36
21. Cc1cc(C(=O)N2CCC(Cc3ccccc3)CC2)c(C)o1 : -3.49
22. O=C(CCNC(=O)c1ccc(Br)cc1)NCc1cccnc1 : -2.13
23. CCCCCCCCn1c2c(c(=N)c3c1CCC3)CCCC2 : -5.2
24. CCC(=O)c1ccc(N2CCN(C(=O)Cc3ccccc3)CC2)c(F)c1 : 18.2
25. CCCn1c2c(c(=N)c3c1CCC3)CCC2 : -2.65
26. Cc1ccccc1-c1nnn(CC(=O)N(C)CC(=O)Nc2ccccc2C(F)(F)F)n1 : 6.76
27. O=C(NNC(=O)C1CC=CCC1)c1cccc(Br)c1 (stereo unspecified) : 5.92
28. CCOC(=O)c1c(N)nn(C(C)=O)c1-c1ccccc1 : -5.98
29. CC(C)(C)Cc1nnc(NS(=O)(=O)c2ccc([N+](=O)[O-])cc2)s1 : -2.4
30. CCOC(=O)c1ccc(-c2ccc(C3Nc4ccccc4C(=O)N3O)o2)cc1 (stereo unspecified) : -7.99
31. Cn1c(N)c(N2CCN(c3ccccc3)CC2)c(=O)[nH]c1=O : -2.5
32. COc1ccc(C(=O)N/C(=C\c2ccco2)C(=O)NC2CCS(=O)(=O)C2)cc1 (stereo unspecified) : -6.19
33. CC1CN(CCOc2ccc(Cl)cc2Cl)CC(C)O1 (stereo unspecified) : 10.8
34. N#C/C(=C\c1ccccc1Cl)C(=O)Nc1ccccn1 : 2.25
35. CCCCn1c(SCC(=O)Nc2cc(C)on2)nnc1-c1ccncc1 : 7.28
36. c1ccc2cc(OCCCn3ccnc3)ccc2c1 : -0.84
37. CC1CC(C)CN(S(=O)(=O)N2CCCC(C(=O)NCCc3ccccc3)C2)C1 (stereo unspecified) : 6.06
38. COc1ccccc1C(=O)NC(=O)Nc1nc(-c2ccccc2)cc(C(F)(F)F)n1 : 2.17
39. O=C(CSc1ccc2c(c1)OCCO2)NC(=O)Cc1ccccc1 : -0.51
40. COc1cc(N)c(Cl)cc1C(=O)OCC(=O)N1CCCC1 : -3.7
41. CC1CC(C)CN(CCOc2cccc(Cl)c2Cl)C1 (stereo unspecified) : -0.58
42. Cc1c(C)[n+](=O)c(-c2ccc(Br)cc2)c(C)n1[O-] : 4.2
43. O=C(c1ccc(F)cc1)c1ccc(N2CCCCC2)cc1 : -11.2
44. Cc1ccc2c(c1)[nH]c1c(N3CCN(Cc4ccccc4)CC3)ncnc12 : 6.98
45. O=C(CCc1nnc2ccc(N3CCCCC3)nn12)NCc1ccco1 : -3.14
46. Cc1ccc2[nH]c3c(c2c1)CCc1cn[nH]c1-3 : -6.69
